Taken from patent US8178506B2.

System: HeLa cells
Test: Cell cycle assay in HeLa cells
Type: cell-based, human
Conditions: HeLa cells, 150 nM, 48 hours; percentage of cells in phase, average of replicates
In the oligonucleotide strings, read from the 5' end, every base follows the letter of its sugar. An asterisk marks phosphorothioate; unmarked linkages are phosphodiester. Other units and linkages are bracketed, terminal groups are in braces. A string of capitals states the bases alone. e = 2'-O-(2-methoxyethyl) (MOE); [5mC] = 5-methylcytosine; d = 2'-deoxy (DNA)
I'd be grateful if you could share measured % cells in cell cycle phase: G1 for these entries.
Numbers only, in %.

{"columns": ["Substance", "Attribute measured", "Measured number"],
 "data": [
  ["327902 (antisense eG*eG*e[5mC]*eT*eG*eT*e[5mC]*eA*eA*eT*eT*e[5mC]*eA*eT*eA*eG*eG*eT*e[5mC]*eA*eG) [compound 327902]", "% cells in cell cycle phase: G1", 36],
  ["328383 (eA*eG*eA*eG*eG*dG*dG*dA*dG*dA*d[5mC]*dG*dA*dG*dA*eG*e[5mC]*eA*e[5mC]*eT) [compound 328383]", "% cells in cell cycle phase: G1", 29]
]}

For every item in the list below, what is its measured % cells in cell cycle phase: G1?
1. 327905 (antisense e[5mC]*eA*eG*eA*e[5mC]*eT*e[5mC]*e[5mC]*eG*eG*eT*eG*eG*eA*eA*eT*eG*eA*eA*eG*eG*eA) [compound 327905]
2. 328403 (antisense eA*eG*eG*e[5mC]*e[5mC]*dT*dA*dT*dT*d[5mC]*d[5mC]*dT*dG*dT*dA*eG*e[5mC]*eA*eA*eA) [compound 328403]

1: 38; 2: 37
